Target: ALKBH6 (Homo sapiens, UniProt Q3KRA9)
Construct: His-tag; made in house
Sequence (Q3KRA9 whole entry): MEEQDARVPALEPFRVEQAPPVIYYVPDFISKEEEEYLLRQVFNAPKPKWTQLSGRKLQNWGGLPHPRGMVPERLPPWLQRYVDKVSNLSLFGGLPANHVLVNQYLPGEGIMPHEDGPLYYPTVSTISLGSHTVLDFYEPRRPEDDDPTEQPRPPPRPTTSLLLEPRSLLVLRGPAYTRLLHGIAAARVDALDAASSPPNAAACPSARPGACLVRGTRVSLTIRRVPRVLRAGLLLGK
Experiment: Intrinsic tryptophan fluorescence quenching (Stern-Volmer)
Format: binding
Details: WT ALKBH6, 2OG omitted
MEASURE: Stern-Volmer constant (Ksv) (µM⁻¹)
# number only, unit µM⁻¹ dropped from output

Find Stern-Volmer constant (Ksv) (ALKBH6 (Homo sapiens, UniProt Q3KRA9)) for the entry C[n+]1cn([C@@H]2O[C@H](COP(=O)(O)O)[C@@H](O)[C@H]2O)c2nc(N)[nH]c(=O)c21 [7me-GMP, N-7-methyl-GMP] 0.036

Now consider Cn1c[n+]([C@@H]2O[C@H](COP(=O)([O-])OP(=O)(O)OP(=O)(O)O)[C@@H](O)[C@H]2O)c2nc(N)[nH]c(=O)c21 [7me-GTP] and answer again. 0.007

Now consider Cn1c(N)nc2c(ncn2[C@@H]2O[C@H](COP(=O)(O)OP(=O)(O)OP(=O)(O)O)[C@@H](O)[C@H]2O)c1=O [1me-GTP] and answer again. 0.004

Now consider C[n+]1cnc2c(ncn2[C@@H]2O[C@H](COP(=O)(O)O)[C@@H](O)[C@H]2O)c1N [1me-AMP, N-1-methyl-adenosine monophosphate] and answer again. 0.011
